Tested on: VERO cells
PROCEDURE TEXT: Cytotoxicity of ACs, WST-1, 24 h
ASSAY CONTEXT: 24 h, WST-1, tested 0.1-100 µg/mL
I'd appreciate it if you could supply Highest Concentration with Cell Viability above 75% values for the items below.
Give bare numbers, in µg/mL.

# example entries with known answers
>>> experimental_value("Cc1ccc(Cl)cc1N1CCN(C[C@H]2C(=O)O[C@@H]3C[C@@]4(C)CCC[C@H](C)[C@@]45O[C@H]5[C@@H]32)CC1 [AC#17]")
1
>>> experimental_value("CN1CCN(C(=O)CCn2c3c(c4ccccc42)CCn2c-3nc3ccccc3c2=O)CC1 [AC#10]")
1

Pending compound:
C[C@H]1CCC[C@]2(C)C[C@H]3OC(=O)[C@H](CN4CCN(c5ccccc5)CC4)[C@H]3[C@@H]3O[C@@]132 [AC#16] has a reported Highest Concentration with Cell Viability above 75% of 1

###

System: VERO cells
PROCEDURE TEXT: Cytotoxicity of ACs, WST-1, 24 h
ASSAY CONTEXT: 24 h, WST-1, tested 0.1-100 µg/mL
PROPERTY: Highest Concentration with Cell Viability above 75%

As a guide, the following entries are already answered.
>>> experimental_value("O=c1c(-c2c3cn[nH]c3nc3c2oc2cc(O)ccc23)cc2cccc3c2n1CC3")
">100 µg/mL"
>>> experimental_value("O=C(CC1NC(=O)c2ccccc21)Nc1ccc2c(c1)C(=O)N1CCC[C@H]1C(=O)N2 (stereo partly drawn)")
">100 µg/mL"

Next compound, Highest Concentration with Cell Viability above 75% to be filled in.
Per the record, O=C(/C=C1\NCCc2cc3c(cc21)OCO3)c1cc2ccccc2o1 has Highest Concentration with Cell Viability above 75% of >100 µg/mL

These data points were gathered from paper PMC8955139.
